# SUBJECT OF TEST: human Lck enzyme (Homo sapiens)
# Construct: purchased Carna Biosciences, Inc. 08-170
# Sequence (P06239 whole entry): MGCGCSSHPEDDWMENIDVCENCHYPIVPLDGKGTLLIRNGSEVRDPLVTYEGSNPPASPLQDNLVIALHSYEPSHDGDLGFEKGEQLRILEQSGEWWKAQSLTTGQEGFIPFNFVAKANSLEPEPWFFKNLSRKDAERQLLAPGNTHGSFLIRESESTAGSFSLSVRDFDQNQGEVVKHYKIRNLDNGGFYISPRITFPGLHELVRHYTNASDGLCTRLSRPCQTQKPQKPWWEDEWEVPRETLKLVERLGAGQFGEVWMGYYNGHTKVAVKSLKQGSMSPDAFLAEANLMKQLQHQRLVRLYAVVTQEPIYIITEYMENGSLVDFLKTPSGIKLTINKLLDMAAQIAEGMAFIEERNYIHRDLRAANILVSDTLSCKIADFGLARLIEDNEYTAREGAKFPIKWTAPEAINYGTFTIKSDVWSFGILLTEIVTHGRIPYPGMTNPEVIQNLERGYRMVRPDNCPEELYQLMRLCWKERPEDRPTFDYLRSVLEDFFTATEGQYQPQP
# PROCEDURE SUMMARY: Lck enzyme inhibitory activity (time-resolved fluorometry, biotinylated peptide phosphorylation)
# Type: biochemical
# STATED CONDITIONS: read-out: LCK_IC50
METRIC: IC50 (nM)
Use nM as the unit, but write only the number.

Examples with their reported IC50 follow.
CCc1cc2cc(C(=O)c3cnn(-c4cnc(Oc5c(F)cccc5F)cc4C)c3N)[nH]c2cc1NS(C)(=O)=O [Example 5-1-141]
27
Cc1cc2cc(C(=O)c3cnn(-c4cnc(Oc5c(F)cccc5F)cc4C)c3N)[nH]c2cc1N1C(=O)NC2(CCN(C3COC3)C2)C1=O (stereo not shown) [Example 5-1-362]
6.5

Using known records, supply IC50 for Cc1cc(-n2ncc(C(=O)c3cc4cc(OC(F)F)c(N5CCN(S(C)(=O)=O)CC5)cc4[nH]3)c2N)ccc1Oc1ccccc1F [Example 5-1-175] 74

Tell me its IC50 given COc1cc2cc(C(=O)c3cnn(-c4cnc(Oc5ccccc5F)cc4C)c3N)[nH]c2cc1Br [Example 5-1-145] as the entry. 8.2

Look up and report measured IC50 for this entry: Cc1cc2cc(C(=O)c3cnn(-c4c(C)cc(Oc5ccccc5F)cc4F)c3N)[nH]c2cc1C1CCN(S(C)(=O)=O)CC1 [Example 5-1-111] 14

Please give measured IC50 of the following entry: Cc1cc(-n2ncc(C(=O)c3cc4cc(OC5CCN(C(C)C)CC5)c(C5CCN(S(C)(=O)=O)CC5)cc4[nH]3)c2N)ccc1Oc1ccccc1F [Example 5-1-230] 7

Entry Cc1cc(Oc2c(F)cccc2F)ncc1-n1ncc(C(=O)c2cc3cc(OCC(F)F)c(N4CC(C)(C)NS4(=O)=O)cc3[nH]2)c1N [Example 5-1-321] needs its IC50 filled in; supply it. 34

Specify measured IC50 for Cc1cc(Oc2c(F)cccc2F)ncc1-n1ncc(C(=O)c2cc3cc(F)c(NC4CCN(S(C)(=O)=O)CC4)cc3[nH]2)c1N [Example 5-1-113] . 3.3
